tested.target: BSA (UniProt P02769)
Sequence (P02769 25-607 limits assumed): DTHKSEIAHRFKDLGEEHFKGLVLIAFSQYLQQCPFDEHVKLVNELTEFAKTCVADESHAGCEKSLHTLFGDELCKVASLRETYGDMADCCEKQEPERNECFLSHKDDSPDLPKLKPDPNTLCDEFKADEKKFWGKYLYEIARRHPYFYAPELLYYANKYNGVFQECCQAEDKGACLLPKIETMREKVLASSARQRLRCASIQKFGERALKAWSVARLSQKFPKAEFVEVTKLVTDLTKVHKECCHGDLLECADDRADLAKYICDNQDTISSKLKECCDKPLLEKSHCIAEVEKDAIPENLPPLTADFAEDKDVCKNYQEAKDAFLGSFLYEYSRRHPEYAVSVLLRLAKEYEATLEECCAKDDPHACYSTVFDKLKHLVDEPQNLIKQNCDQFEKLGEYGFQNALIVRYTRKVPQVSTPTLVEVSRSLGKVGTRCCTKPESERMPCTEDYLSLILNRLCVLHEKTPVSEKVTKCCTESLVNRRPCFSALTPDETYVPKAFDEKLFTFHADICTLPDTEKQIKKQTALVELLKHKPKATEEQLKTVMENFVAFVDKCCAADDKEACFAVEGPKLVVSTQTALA
assay.remarks: scFv ELISA
Threshold 0.08 OD450. OD450 below it: MET. OD450 at it or above: NOT MET.

QUERY: Item PcOxP_DB03_G11 (scFv, V domains shown, scFv in periplasmic extract) VH: EVQLLESGGGLVQPGGSLRLSCAASGFTFSSYYMEWVRQAPGKGLEWVAASRNKANDYTTEYADSVKGRFTISRDNSKNTLYLQMNSLRAEDTAVYYCARDYYGSSYWYFDVWGQGTLVTVSS VL: DIVMTQSPDSLAVSLGERATINCKSSQSVLSSKHKKNYLAWYQQKPGQPPKLLIYGASNRYIGVPDRFSGSGSGTDFTLTISSLQAEDVAVYYCAQFYSYPLTFGGGTKVEIK : OD450 beneath 0.08 OD450, strictly?
RESULT: NOT MET

QUERY: Record PcOxP_DB01_B01 (scFv, V domains shown, scFv in periplasmic extract) VH: EVQLLESGGGLVQPGGSLRLSCAASGFTFSDQYIEWVRQAPGKGLEWVAASRNKANDYTTEYADSVKGRFTISRDNSKNTLYLQMNSLRAEDTAVYYCARDYLGSSYWYFDVWGQGTLVTVSS VL: DIQMTQSPSSLSASVGDRVTITCTASESLYSSKHKVHYLAWYQQKPGKAPKLLIYGASHRYIGVPSRFSGSGSGTDFTLTISSLQPEDFATYYCAQFYAYPLTFGGGTKVEIK : is its OD450 strictly below 0.08 OD450?
RESULT: NOT MET

QUERY: Hello, I'm reviewing records and need to know if OD450 of PcOxP_DB01_D10 (scFv, V domains shown, scFv in periplasmic extract) VH: EVQLLESGGGLVQPGGSLRLSCAASGFTDSDFYMEWVRQAPGKGLEWVAASRNKANDYTTEYADSVKGRFTISRDNSKNTLYLQMNSLRAEDTAVYYCARDYYGSSYWYFDVWGQGTLVTVSS VL: DIVMTQSPDSLAVSLGERATINCTASESLYSSKHKVHYLAWYQQKPGQPPKLLIYGASNRYIGVPDRFSGSGSGTDFTLTISSLQAEDVAVYYCAQFYSYPLTFGGGTKVEIK is below 0.08 OD450. Could you check?
RESULT: MET

QUERY: Below 0.08 OD450 on OD450? Entry PcOxP_DB04_B08 (scFv, V domains shown, scFv in periplasmic extract) VH: EVQLLESGGGLVQPGGSLRLSCAASGFTFSDDYMEWVRQAPGKGLEWVAASRNKANDYTTEYADSVKGRFTISRDNSKNTLYLQMNSLRAEDTAVYYCARDYYGSSYWYFDVWGQGTLVTVSS VL: DIQMTQSPSSLSASVGDRVTITCTASESLYSSKHKVHYLAWYQQKPGKAPKLLIYGLSNRYIGVPSRFSGSGSGTDFTLTISSLQPEDFATYYCAQFFSYPLTFGGGTKVEIK
RESULT: NOT MET

QUERY: Below 0.08 OD450 on OD450? Entry PcOxP_DB04_D09 (scFv, V domains shown, scFv in periplasmic extract) VH: EVQLLESGGGLVQPGGSLRLSCAASGFTDSDFYMEWVRQAPGKGLEWVAASRNKANDYTTEYADSVKGRFTISRDNSKNTLYLQMNSLRAEDTAVYYCARDYYGSSYWYFDVWGQGTLVTVSS VL: DIVMTQSPDSLAVSLGERATINCKSSESLYSSKNKVHYLAWYQQKPGQPPKLLIYGASNRYSGVPDRFSGSGSGTDFTLTISSLQAEDVAVYYCAQFYSYPLTFGGGTKVEIK
RESULT: MET

QUERY: is_below(OD450, 0.08 OD450) for PcOxP_DB02_E09 (scFv, V domains shown, scFv in periplasmic extract) VH: EVQLLESGGGLVQPGGSLRLSCAASGFTFSDYYMEWVRQAPGKGLEWVAASRWKANDYTTEYADSVKGRFTISRDNSKNTLYLQMNSLRAEDTAVYYCARDYYGSSYWYFDVWGQGTLVTVSS VL: DIVMTQSPDSLAVSLGERATINCTASESLYSSKHKVHYLAWYQQKPGQPPKLLIYGASTRYSGVPDRFSGSGSGTDFTLTISSLQAEDVAVYYCAQFYTYPLTFGGGTKVEIK ?
RESULT: MET

QUERY: Given the entry PcOxP_DB03_F01 (scFv, V domains shown, scFv in periplasmic extract) VH: EVQLLESGGGLVQPGGSLRLSCAASGFTFNDFYMEWVRQAPGKGLEWVAASRNKANDYTTEYADSVKGRFTISRDNSKNTLYLQMNSLRAEDTAVYYCARDYYGSSYWYFDVWGQGTLVTVSS VL: DIQMTQSPSSLSASVGDRVTITCEASESLYSSKHKVHYLAWYQQKPGKAPKLLIYGASNRLIGVPSRFSGSGSGTDFTLTISSLQPEDFATYYCAQFYEYPLTFGGGTKVEIK , would its reported OD450 be below 0.08 OD450?
RESULT: NOT MET

QUERY: Criterion: OD450 strictly below 0.08 OD450. Is it met by PcOxP_DB04_A05 (scFv, V domains shown, scFv in periplasmic extract) VH: EVQLLESGGGLVQPGGSLRLSCAASGFTFSDFYIEWVRQAPGKGLEWVAASRNKANDYTTEYADSVKGRFTISRDNSKNTLYLQMNSLRAEDTAVYYCARDYYGSSYWYFDVWGQGTLVTVSS VL: DIVMTQSPDSLAVSLGERATINCTASESLYSSKHKVHYLAWYQQKPGQPPKLLIYGASNREIGVPDRFSGSGSGTDFTLTISSLQAEDVAVYYCAQFYSYPLTFGGGTKVEIK ?
RESULT: MET
